- Tested on: LoVo-Dox
- experiment-summary: SRB colorimetric assay of cell growth and viability, LoVo-Dox
- Assay type: cell-based, human
- measurement-setup: 48 hours exposure, SRB; read-out: LC50 LOVO-DOX
- Description: The finality of this assay is to interrupt the growth of a “in vitro” tumor cell culture by means a continued exhibition of the cells to the sample to be testing. A colorimetric type of assay, using sulforhodamine B (SRB) reaction has been adapted for a quantitative measurement of cell growth and viability [following the technique described by Philip Skehan, et al. (1990), New colorimetric cytotoxicity assay for anticancer drug screening, J. Natl. Cancer Inst., 82:1107-1112]. […]
// reported CC50 for each item listed
Answer with a number only, understood to be in nM.

# molecule, CC50, nM
measured = [
    ("C/C=C1\\NC(=O)[C@H](Cc2ccc([N+](=O)[O-])cc2)NC(=O)[C@@H](C(C)C)NC(=O)[C@@H]([C@@H](C)CC)NC(=O)[C@H](NC(=O)[C@H](NC(=O)[C@H](CCCN)NC(=O)[C@H]2CCCN2C(=O)[C@H](NC(=O)[C@@H](NC(=O)[C@@H](NC(=O)[C@H](NC(=O)CC[C@@H](C)CC)C(C)C)[C@@H](C)O)C(C)C)C(C)C)[C@@H](C)CC)[C@@H](C)OC(=O)[C@H](C(C)C)NC1=O [Compound 73, [Phe(4-NO2)^3, (4S)-MeHex^14]-KF]", 255),
]

Name the reported CC50 value associated with the molecule C/C=C1\NC(=O)[C@H](Cc2c(F)c(F)c(F)c(F)c2F)NC(=O)[C@@H](C(C)C)NC(=O)[C@@H]([C@@H](C)CC)NC(=O)[C@H](NC(=O)[C@H](NC(=O)[C@H](CCCN)NC(=O)[C@H]2CCCN2C(=O)[C@H](NC(=O)[C@@H](NC(=O)[C@@H](NC(=O)[C@H](NC(=O)CC[C@@H](C)CC)C(C)C)[C@@H](C)O)C(C)C)C(C)C)[C@@H](C)CC)[C@@H](C)OC(=O)[C@H](C(C)C)NC1=O [Compound 71, [Phe(F5)^3, (4S)-MeHex^14]-KF]
456
